Measured Population Mitotic Cells (%) values are reported for all entries that follow.
- System: U2OS
- Protocol text: Multiplex assay against U2OS
- Format: toxicity, cell-based
- Condition details: human, 12 h, 10 µM, compound concentration 10 uM, replicate 1
Answer format: numeric, % implied, no suffix.

// solved cases for Population Mitotic Cells (%) follow
INSERT INTO assay_data (compound, reported_property, result) VALUES
  ('COCC(=O)NC/C=C/c1ccc2ncnc(Nc3ccc(Oc4ccc(C)nc4)c(C)c3)c2c1 [CP-724714]', 'Population Mitotic Cells (%)', 48),
  ('Cn1nc(C(F)(F)F)cc1-c1cnc(N2CCc3cc(S(=O)(=O)Nc4c(F)cc(Cl)cc4F)cc(N4CCCC4=O)c32)nc1 [TP-020]', 'Population Mitotic Cells (%)', 50);

What the record says about Cc1cc(C)c(S(=O)(=O)N(Cc2ccc(-c3cccc(S(C)(=O)=O)c3)cc2)Cc2ccc(C(F)(F)F)o2)c(C)c1 : Population Mitotic Cells (%) is 68

Quick note, Population Mitotic Cells (%) for O=C(Nc1ccc(-c2ccnc(Nc3ccc(N4CCOCC4)cc3)n2)cc1)[C@@H]1CCCN1 landed at 37

The compound listed as CCCn1c(=O)c2[nH]c(-c3cnn(Cc4cccc(C(F)(F)F)c4)c3)nc2n(CC)c1=O [GS 6201] shows Population Mitotic Cells (%) equal to 64

Field Population Mitotic Cells (%) (entry CCn1cc(-c2ccnc3[nH]c(-c4cccc(CN(C)C)c4)cc23)c(-c2ccc(NC(=O)N(C)C)cc2)n1 [GSK-1070916] ) reads 49

Noted for O=C(Nc1ccc(-n2nc(-c3cccnc3)cc2C(F)(F)F)cn1)c1ccc(-c2ccccc2)c(F)c1 [BI 2049] : its Population Mitotic Cells (%) reads 70

----------
- Tested on: HEK-293T
- Protocol text: Multiplex assay against HEK293T
- Type: toxicity, cell-based
- Condition details: human, 24 h, 1 µM, compound concentration 1 uM, replicate 2
Population Healthy Nuclei (%): recorded values
Give just the number in %; leave the unit off.

Sample answers from the record:
INSERT INTO results (smiles, reported_property, result) VALUES
  ('COc1cc(N2CCN(C)CC2)ccc1Nc1ncc2c(n1)N(C)c1ccccc1C(=O)N2C', 'Population Healthy Nuclei (%)', 48),
  ('C=CCn1c(=O)c2cnc(Nc3ccc(N4CCN(C)CC4)cc3)nc2n1-c1cccc(C(C)(C)O)n1', 'Population Healthy Nuclei (%)', 58),
  ('Cc1cc(C)c(S(=O)(=O)N(Cc2ccc(-c3cccc(S(C)(=O)=O)c3)cc2)Cc2ccc(C(F)(F)F)o2)c(C)c1', 'Population Healthy Nuclei (%)', 64);

Form field Population Healthy Nuclei (%), entry Cl.O=c1c2cccn2c2ccccc2n1CCCN1CCC(c2ccc(Cl)cc2)CC1 : 56

----------
This listing pairs compounds with measured Population Healthy Nuclei (%).
- System: U2OS
- Protocol text: Multiplex assay against U2OS
- Format: toxicity, cell-based
- Condition details: human, 48 h, 1 µM, compound concentration 1 uM, replicate 1
Respond with the bare value in %.

INSERT INTO assay_data (compound, reported_property, unit_string, result) VALUES
  ('CCc1cccc(CC)c1NC(=O)c1nn(C)c2c1CCc1cnc(Nc3ccc(C(=O)NC4CCN(C)CC4)cc3OC(F)(F)F)nc1-2', 'Population Healthy Nuclei (%)', '%', 54);

Summary line: Cc1cn(-c2cc(NC(=O)c3ccc(C)c(Nc4nccc(-c5cccnc5)n4)c3)cc(C(F)(F)F)c2)cn1 , U2OS, reported Population Healthy Nuclei (%) = 67

Entry CNc1cc(Oc2cc(C(=O)Nc3cc(N4CCN(C)CC4)cc(C(F)(F)F)c3)ccc2C)ncn1 , tested on U2OS, has a reported Population Healthy Nuclei (%) of 60

Summary line: CN1CCC(=C2c3ccccc3CC(=O)c3sccc32)CC1.O=C(O)/C=C/C(=O)O [KETOTIFEN FUMARATE] , U2OS, reported Population Healthy Nuclei (%) = 86

----------
- System: Fibroblast
- Protocol text: Multiplex assay against human fibroblast
- Format: toxicity, cell-based
- Condition details: 24 h, 1 µM, compound concentration 1 uM, replicate 1
Reported property: Population Mitochondria Different-Phenotype (%)
Give your result in % as a bare value.

Below, 5 molecules whose answers are already recorded.
INSERT INTO results (molecule, result) VALUES
  ('CCn1cc(-c2ccnc3[nH]c(-c4cccc(CN(C)C)c4)cc23)c(-c2ccc(NC(=O)N(C)C)cc2)n1 [GSK-1070916]', 1),
  ('CCc1cccc(CC)c1NC(=O)c1nn(C)c2c1CCc1cnc(Nc3ccc(N4CCN(C)CC4)cc3OC)nc1-2', 89),
  ('O=C1N/C(=N/c2ccccc2F)S/C1=C\c1ccc(C(=O)O)cc1', 5),
  ('O=C(Nc1ccc(-n2nc(-c3cccnc3)cc2C(F)(F)F)cn1)c1ccc(-c2ccccc2)c(F)c1 [BI 2049]', 12),
  ('CN(C)C(=O)C(CCN1CCC(O)(c2ccc(Cl)cc2)CC1)(c1ccccc1)c1ccccc1.Cl [LOPERAMIDE HYDROCHLORIDE]', 20);

Recorded result, CCN1CCN(Cc2ccc(Nc3ncc(F)c(-c4cc(F)c5nc(C)n(C(C)C)c5c4)n3)nc2)CC1.CS(=O)(=O)O , Population Mitochondria Different-Phenotype (%): 8

Lab note: measured Population Mitochondria Different-Phenotype (%) of CN1CCC(=C2c3ccccc3CC(=O)c3sccc32)CC1.O=C(O)/C=C/C(=O)O [KETOTIFEN FUMARATE] was 6

Note to self: Population Mitochondria Different-Phenotype (%) recorded for CCCS(=O)(=O)Nc1ccc(F)c(C(=O)c2c[nH]c3ncc(Cl)cc23)c1F [PLX-4720] was 10

----------
- System: Fibroblast
- Protocol text: Multiplex assay against human fibroblast
- Type: toxicity, cell-based
- Condition details: 24 h, 1 µM, compound concentration 1 uM, replicate 2
Label f if Population Mitochondria Different-Phenotype (%) falls below 20%; label t in every other case.

Examples from the recorded data:
INSERT INTO assay_data (compound, category_label) VALUES
  ('COc1cc(N2CCN(C)CC2)ccc1Nc1ncc2c(n1)N(C)c1ccccc1C(=O)N2C', 'f'),
  ('CN(C)C(=O)C(CCN1CCC(O)(c2ccc(Cl)cc2)CC1)(c1ccccc1)c1ccccc1.Cl [LOPERAMIDE HYDROCHLORIDE]', 't'),
  ('C=C1/C(=C\C=C2/CCC[C@]3(C)[C@@H]([C@H](C)/C=C/[C@H](C)C(C)C)CC[C@@H]23)C[C@@H](O)C[C@@H]1O [DOXERCALCIFEROL]', 'f');

Could you please find out whether CCc1cccc(CC)c1NC(=O)c1nn(C)c2c1CCc1cnc(Nc3ccc(C(=O)NC4CCN(C)CC4)cc3OC(F)(F)F)nc1-2 has Population Mitochondria Different-Phenotype (%) that meets 20% or exceeds it?
f

# bool: Population Mitochondria Different-Phenotype (%) of CCOc1cc(C(=O)N2CCC(N3CCN(C)CC3)CC2)ccc1Nc1ncc2c(n1)N(C1CCCC1)c1ccccc1C(=O)N2C >= 20%
t

Quick check, Population Mitochondria Different-Phenotype (%) >= 20%? O=C(Nc1ccc(Cl)cc1)Nc1cccc(-c2cccc(N3CCCC3)n2)c1
f

Say whether COc1cc2ncnc(Nc3ccc(F)c(Cl)c3)c2cc1NC(=O)/C=C/CN1CCCCC1 [DACOMITINIB ANHYDROUS] shows Population Mitochondria Different-Phenotype (%) of 20% or more.
f

Decide: Population Mitochondria Different-Phenotype (%) of CNC(=O)c1ccc(Nc2nc(OC3CCCC3)c3c(-c4ccc5nc(C)oc5c4)c[nH]c3n2)c(OC)c1 >= 20%?
f

Has COc1ccc(-c2ccc3c(N4CCOCC4)nc(N4C[C@@H](C)O[C@@H](C)C4)nc3n2)cc1CO [Ku-0063794] a recorded Population Mitochondria Different-Phenotype (%) greater than or equal to 20%?
f

----------
- System: HEK-293T
- Protocol text: Multiplex assay against HEK293T
- Assay type: toxicity, cell-based
- Condition details: human, 48 h, 10 µM, compound concentration 10 uM, replicate 2
# binarize Population Apoptotic (%): threshold 40% inclusive, high side condition met, low side condition not met

INSERT INTO results (molecule, category_label) VALUES
  ('Cl.Oc1ccc2c3c1O[C@H]1c4[nH]c5c(c4C[C@@]4(O)[C@@H](C2)N(CC2CC2)CC[C@]314)C[C@@]1(O)[C@H]2Cc3ccc(O)c4c3[C@@]1(CCN2CC1CC1)[C@H]5O4', 'condition not met'),
  ('CCN1CCN(Cc2ccc(Nc3ncc(F)c(-c4cc(F)c5nc(C)n(C(C)C)c5c4)n3)nc2)CC1.CS(=O)(=O)O', 'condition met'),
  ('COc1cc(N2CCN(C)CC2)ccc1Nc1ncc2c(n1)N(C)c1ccccc1C(=O)N2C', 'condition met'),
  ('O=C(Nc1ccc(Cl)cc1)Nc1cccc(-c2cccc(N3CCCC3)n2)c1', 'condition met');

Does the reported Population Apoptotic (%) for Cc1ccc(C(=O)Nc2cccc(C(F)(F)F)c2)cc1Nc1nc(-c2cccnc2)nc2c1cnn2C fall at or above the 40% mark?
condition met

Please tell me: is the molecule Cc1cc(C)c(S(=O)(=O)N(Cc2ccc(-c3cccc(S(C)(=O)=O)c3)cc2)Cc2ccc(C(F)(F)F)o2)c(C)c1 at or over 40% in terms of Population Apoptotic (%)?
condition not met

Please indicate if the recorded Population Apoptotic (%) for CN1CCN(C(=O)C(C)(C)c2ccc(C(=O)Nc3cn4cc(-c5ccncc5)ccc4n3)cc2)CC1 [T3-CLK] meets or exceeds 40%.
condition met

Is Population Apoptotic (%) at least 40%? Consider CN(C)C(=O)C(CCN1CCC(O)(c2ccc(Cl)cc2)CC1)(c1ccccc1)c1ccccc1.Cl [LOPERAMIDE HYDROCHLORIDE]
condition met

Reported Population Apoptotic (%) at or above 40%? CCn1c(=O)c(-c2ccc(-c3cncs3)cc2Cl)cc2cnc(Nc3ccc(N4CCN(C)CC4)cc3)nc21
condition not met

Reported Population Apoptotic (%) reaches at least 40% for CCOc1cc(C(=O)N2CCC(N3CCN(C)CC3)CC2)ccc1Nc1ncc2c(n1)N(C1CCCC1)c1ccccc1C(=O)N2C ?
condition met

Hi, just wondering whether O=C(Nc1ccc(-n2nc(-c3cccnc3)cc2C(F)(F)F)cn1)c1ccc(-c2ccccc2)c(F)c1 [BI 2049] shows Population Apoptotic (%) of 40% or higher.
condition not met
